Where these numbers come from: patent EP0259014A2

tested on: Providencia sp. Pv 16; experiment: MIC, serial dilution on Mueller Hinton agar; format: cell-based; conditions: SP.PV16; Providencia sp. Pv 16, resistance mechanism AAC(2'); Mueller Hinton agar, 37°C, 18 hours; read-out: MIC.
property_label: MIC (µg/mL)
Give bare numbers, in µg/mL.

NC[C@H](O)C(=O)N[C@@H]1C[C@H](N)[C@@H](O[C@H]2O[C@H](CN)[C@@H](O)C[C@H]2N)[C@H](F)[C@H]1O[C@H]1O[C@H](CO)[C@@H](O)[C@H](N)[C@H]1O :: 0.78
NCC[C@H](O)C(=O)N[C@@H]1C[C@H](N)[C@@H](O[C@H]2O[C@H](CN)C[C@H](O)[C@H]2N)[C@H](F)[C@H]1O[C@H]1O[C@H](CO)[C@@H](O)[C@H](N)[C@H]1O :: 0.78
NCC[C@H](O)C(=O)N[C@@H]1C[C@H](N)[C@@H](O[C@H]2O[C@H](CN)CC[C@H]2N)[C@H](F)[C@H]1O[C@H]1O[C@H](CO)[C@@H](O)[C@H](N)[C@H]1O :: 0.78

Give measured MIC for every item shown.
1. NCC(O)C(=O)N[C@@H]1C[C@H](N)[C@@H](O[C@H]2O[C@H](CN)[C@@H](O)C[C@H]2N)[C@H](F)[C@H]1O[C@H]1O[C@H](CO)[C@@H](O)[C@H](N)[C@H]1O (some centres unmarked)
2. NC[C@H]1O[C@H](O[C@H]2[C@H](O)[C@@H](O[C@H]3O[C@H](CO)[C@@H](O)[C@H](N)[C@H]3O)[C@H](N)C[C@@H]2N)[C@H](N)C[C@@H]1O [TMB, 3'-deoxykanamycin B, reference compound]

Marked response:
[0.78, 6.25]

====

tested on: Providencia sp. Pv 16; experiment: MIC, serial dilution on Mueller Hinton agar; format: cell-based; conditions: Providencia, SP.PV16, 18 h
Would you kindly list MIC for each of these compounds?
Numbers only, in µg/mL.

Some compounds with known MIC results, for comparison:
NC[C@H]1O[C@H](O[C@H]2[C@H](F)[C@@H](O[C@H]3O[C@H](CO)[C@@H](O)[C@H](N)[C@H]3O)[C@H](N)C[C@@H]2N)[C@H](N)[C@@H](O)[C@@H]1O :: 3.12
NC[C@H]1O[C@H](O[C@H]2[C@H](F)[C@@H](O[C@H]3O[C@H](CO)[C@@H](O)[C@H](N)[C@H]3O)[C@H](N)C[C@@H]2N)[C@H](N)C[C@@H]1O :: 3.12
NC[C@@H]1C[C@H](O)[C@@H](N)[C@@H](O[C@H]2[C@H](F)[C@@H](O[C@H]3O[C@H](CO)[C@@H](O)[C@H](N)[C@H]3O)[C@H](N)C[C@@H]2N)O1 :: 6.25
NC[C@H]1O[C@H](O[C@H]2[C@H](O)[C@@H](O[C@H]3O[C@H](CO)[C@@H](O)[C@H](N)[C@H]3O)[C@H](N)C[C@@H]2N)[C@H](N)[C@@H](O)[C@@H]1O :: 12.5

Exam item: What value of measured MIC is listed for NC[C@@H]1CC[C@@H](N)[C@@H](O[C@H]2[C@H](F)[C@@H](O[C@H]3O[C@H](CO)[C@@H](O)[C@H](N)[C@H]3O)[C@H](NC(=O)[C@@H](O)CN)C[C@@H]2N)O1 ?
Marked response: 1.56

====

tested on: Pseudomonas aeruginosa A3; test: MIC, serial dilution on Mueller Hinton agar; assay type: cell-based; conditions: Pseudomonas aeruginosa A3; Mueller Hinton agar, 37°C, 18 hours; read-out: MIC.
property_label: MIC

NC[C@H]1O[C@H](O[C@H]2[C@H](F)[C@@H](O[C@H]3O[C@H](CO)[C@@H](O)[C@H](N)[C@H]3O)[C@H](N)C[C@@H]2N)[C@H](N)[C@@H](O)[C@@H]1O [Compound No. 1, 5-Deoxy-5-fluorokanamycin B] :: 1.56 µg/mL

Give measured MIC for every item shown.
1. NC[C@H]1O[C@H](O[C@H]2[C@H](F)[C@@H](O[C@H]3O[C@H](CO)[C@@H](O)[C@H](N)[C@H]3O)[C@H](N)C[C@@H]2N)[C@H](N)C[C@@H]1O [Compound No. 2, 5,3'-Dideoxy-5-fluorokanamycin B]
2. NC[C@H](O)C(=O)N[C@@H]1C[C@H](N)[C@@H](O[C@H]2O[C@H](CN)[C@@H](O)[C@H](O)[C@H]2N)[C@H](F)[C@H]1O[C@H]1O[C@H](CO)[C@@H](O)[C@H](N)[C@H]1O [Compound No. 5]
3. NCC[C@H](O)C(=O)N[C@@H]1C[C@H](N)[C@@H](O[C@H]2O[C@H](CN)CC[C@H]2N)[C@H](F)[C@H]1O[C@H]1O[C@H](CO)[C@@H](O)[C@H](N)[C@H]1O [Compound No. 13]

Marked response:
1. < 0.2 µg/mL
2. 0.2 µg/mL
3. 0.39 µg/mL

====

test: in vivo; conditions: mouse, iv
Would you kindly list LD50 for each of these compounds?

NC[C@H]1O[C@H](O[C@H]2[C@H](O)[C@@H](O[C@H]3O[C@H](CO)[C@@H](O)[C@H](N)[C@H]3O)[C@H](N)C[C@@H]2N)[C@H](N)[C@@H](O)[C@@H]1O :: 110 mg/kg

Give measured LD50 for every item shown.
1. NCC[C@H](O)C(=O)N[C@@H]1C[C@H](N)[C@@H](O[C@H]2O[C@H](CN)[C@@H](O)C[C@H]2N)[C@H](F)[C@H]1O[C@H]1O[C@H](CO)[C@@H](O)[C@H](N)[C@H]1O
2. NC[C@H]1O[C@H](O[C@H]2[C@H](O)[C@@H](O[C@H]3O[C@H](CO)[C@@H](O)[C@H](N)[C@H]3O)[C@H](N)C[C@@H]2N)[C@H](N)C[C@@H]1O [TMB, 3'-deoxykanamycin B, reference compound]

Marked response:
["150 mg/kg", "80 mg/kg"]

====

tested on: Escherichia coli JR66/W677; assay: microbe, parasite or virus in culture; assay type: cell-based; conditions: JR66/W677, 18 h
property_label: MIC (µg/mL)
Numbers only, in µg/mL.

Some compounds with known MIC results, for comparison:
NCC[C@H](O)C(=O)N[C@@H]1C[C@H](N)[C@@H](O[C@H]2O[C@H](CN)C[C@H](O)[C@H]2N)[C@H](F)[C@H]1O[C@H]1O[C@H](CO)[C@@H](O)[C@H](N)[C@H]1O [Compound No. 10] :: 1.56
NCC[C@H](O)C(=O)N[C@@H]1C[C@H](N)[C@@H](O[C@H]2O[C@H](CN)[C@@H](O)[C@H](O)[C@H]2N)[C@H](F)[C@H]1O[C@H]1O[C@H](CO)[C@@H](O)[C@H](N)[C@H]1O [Compound No. 6] :: 0.78
NCC[C@H](O)C(=O)N[C@@H]1C[C@H](N)[C@@H](O[C@H]2O[C@H](CN)CC[C@H]2N)[C@H](F)[C@H]1O[C@H]1O[C@H](CO)[C@@H](O)[C@H](N)[C@H]1O [Compound No. 13] :: 0.78
NC[C@H](O)C(=O)N[C@@H]1C[C@H](N)[C@@H](O[C@H]2O[C@H](CN)[C@@H](O)C[C@H]2N)[C@H](F)[C@H]1O[C@H]1O[C@H](CO)[C@@H](O)[C@H](N)[C@H]1O [Compound No. 8] :: 0.78
NC[C@H]1O[C@H](O[C@H]2[C@H](O)[C@@H](O[C@H]3O[C@H](CO)[C@@H](O)[C@H](N)[C@H]3O)[C@H](N)C[C@@H]2N)[C@H](N)C[C@@H]1O [TMB, 3'-deoxykanamycin B, reference compound] :: 12.5

Now, please, on to the next compound.
Exam item: What value of measured MIC is listed for NC[C@H](O)C(=O)N[C@@H]1C[C@H](N)[C@@H](O[C@H]2O[C@H](CN)[C@@H](O)[C@H](O)[C@H]2N)[C@H](F)[C@H]1O[C@H]1O[C@H](CO)[C@@H](O)[C@H](N)[C@H]1O [Compound No. 5] ?
Marked response: 1.56

====

test system: Pseudomonas aeruginosa A3; assay: MIC, serial dilution on Mueller Hinton agar; assay type: cell-based; details: Pseudomonas aeruginosa A3; Mueller Hinton agar, 37°C, 18 hours; read-out: MIC.
property_label: MIC (µg/mL)
Give bare numbers, in µg/mL.

Some compounds with known MIC results, for comparison:
NC[C@@H]1CC[C@@H](N)[C@@H](O[C@H]2[C@H](O)[C@@H](O[C@H]3O[C@H](CO)[C@@H](O)[C@H](N)[C@H]3O)[C@H](N)C[C@@H]2N)O1 [DKB, 3',4'-dideoxykanamycin B, reference compound] :: 0.2
NC[C@H](O)C(=O)N[C@@H]1C[C@H](N)[C@@H](O[C@H]2O[C@H](CN)[C@@H](O)C[C@H]2N)[C@H](F)[C@H]1O[C@H]1O[C@H](CO)[C@@H](O)[C@H](N)[C@H]1O :: 0.39
NCC[C@H](O)C(=O)N[C@@H]1C[C@H](N)[C@@H](O[C@H]2O[C@H](CN)C[C@H](O)[C@H]2N)[C@H](F)[C@H]1O[C@H]1O[C@H](CO)[C@@H](O)[C@H](N)[C@H]1O :: 0.39

Now, please, on to the next compound.
Exam item: What value of measured MIC is listed for NCC[C@H](O)C(=O)N[C@@H]1C[C@H](N)[C@@H](O[C@H]2O[C@H](CN)[C@@H](O)C[C@H]2N)[C@H](F)[C@H]1O[C@H]1O[C@H](CO)[C@@H](O)[C@H](N)[C@H]1O ?
Marked response: 0.39
